# assay-target: C5aR (Homo sapiens (Human), UniProt P21730)
# Sequence (P21730 whole entry): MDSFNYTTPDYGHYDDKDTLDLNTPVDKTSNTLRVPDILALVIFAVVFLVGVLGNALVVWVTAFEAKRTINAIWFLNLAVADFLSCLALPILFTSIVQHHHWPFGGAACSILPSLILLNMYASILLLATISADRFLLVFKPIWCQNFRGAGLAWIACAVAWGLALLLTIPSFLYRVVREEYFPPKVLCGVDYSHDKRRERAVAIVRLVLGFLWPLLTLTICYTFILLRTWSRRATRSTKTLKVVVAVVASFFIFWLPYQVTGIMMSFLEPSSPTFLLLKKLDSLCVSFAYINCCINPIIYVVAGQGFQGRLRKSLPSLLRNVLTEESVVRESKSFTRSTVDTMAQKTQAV
# procedure-details: Chemotaxis assay using U937 cells (C5aR mediated migration)
# settings: read-out: Mig IC50
pIC50: −log10 of the molar value.
outcome-measure: pIC50

>  <item-smiles>
Cc1cccc(OCC(C)C)c1-n1nc2c(c1-c1ccc(NC(N)=O)c(F)c1)CN(CC(C)(C)C)CC2

>  <outcome-measure>
pIC50

>  <reading>
≥ 8.30

$$$$
>  <item-smiles>
CCc1cccc(CC)c1-n1nc2c(c1-c1cc(F)c(NC(N)=O)cc1F)CN(Cc1ccc(C(F)(F)F)cc1F)C(C)(C)C2

>  <outcome-measure>
pIC50

>  <reading>
≥ 8.30

$$$$
>  <item-smiles>
Cc1cccc(OCC(C)C)c1-n1nc2c(c1-c1ccc(NC(N)=O)cc1)CN(Cc1c(Cl)cccc1Cl)CC2

>  <outcome-measure>
pIC50

>  <reading>
7.30 to 8.30

$$$$
>  <item-smiles>
CCc1cccc(CC)c1-n1nc2c(c1-c1cc(F)c(NC(N)=O)cc1F)CN(Cc1ccccc1)CC2

>  <outcome-measure>
pIC50

>  <reading>
≥ 8.30

$$$$
>  <item-smiles>
Cc1cccc(OCC(C)C)c1-n1nc2c(c1-c1ccc(NC(N)=O)cc1)CN(C(=O)c1ccc(C(C)(C)C)cc1)CC2

>  <outcome-measure>
pIC50

>  <reading>
6.30 to 7.30

$$$$
>  <item-smiles>
Cc1cccc(OCC(C)C)c1-n1nc2c(c1-c1ccc(NC(N)=O)cc1)CN(CC(C)(C)C)CC2

>  <outcome-measure>
pIC50

>  <reading>
7.30 to 8.30

$$$$
>  <item-smiles>
CCc1cccc(CC)c1-n1nc2c(c1-c1cc(F)c(NC(N)=O)cc1F)CN(Cc1ccccc1C(F)(F)F)C(C)(C)C2

>  <outcome-measure>
pIC50

>  <reading>
≥ 8.30

$$$$
>  <item-smiles>
Cc1cccc(OCC(C)C)c1-n1nc2c(c1-c1ccc(NC(N)=O)c(F)c1)CN(CC1CCCC1)CC2

>  <outcome-measure>
pIC50

>  <reading>
≥ 8.30

$$$$

I am curious: what pIC50 value has been reported for CCc1cccc(CC)c1-n1nc2c(c1-c1cc(F)c(NC(N)=O)cc1F)CN(Cc1ccc(C)cc1C)CC2 ?
≥ 8.30

I am curious: what pIC50 value has been reported for Cc1cccc(OCC(C)C)c1-n1nc2c(c1-c1ccc(NC(N)=O)cc1)CN(c1cc(C(F)(F)F)ccc1F)CC2 ?
7.30 to 8.30

###

IC50 listing for selected molecules.
# assay-target: C5aR (Homo sapiens (Human), UniProt P21730)
# procedure-details: Chemotaxis assay using U937 cells (C5aR mediated migration)
# settings: read-out: Mig IC50

>  <molecule>
Cc1cccc(OCC(C)C)c1-n1nc2c(c1-c1ccc(NC(N)=O)c(F)c1)CN(c1ncc(F)cc1Cl)CC2 [Example 1.228]

>  <assay-target>
C5aR (Homo sapiens (Human), UniProt P21730)

>  <IC50>
≤ 5 nM

$$$$
>  <molecule>
CCc1cccc(CC)c1-n1nc2c(c1-c1cc(F)c(NC(N)=O)cc1F)CN(C(=O)OC(C)(C)C)[C@H](C)C2 [Example 1.025]

>  <assay-target>
C5aR (Homo sapiens (Human), UniProt P21730)

>  <IC50>
≤ 5 nM

$$$$
>  <molecule>
Cc1cccc(OCC(C)C)c1-n1nc2c(c1-c1ccc(NC(N)=O)cc1)CN(c1ccc(C(F)(F)F)cc1F)CC2 [Example 1.378]

>  <assay-target>
C5aR (Homo sapiens (Human), UniProt P21730)

>  <IC50>
5 to 50 nM

$$$$
>  <molecule>
Cc1cnc(N2CCc3nn(-c4c(C)cccc4OCC(C)C)c(-c4cc(F)c(NC(N)=O)cc4F)c3C2)c(Cl)c1 [Example 1.190]

>  <assay-target>
C5aR (Homo sapiens (Human), UniProt P21730)

>  <IC50>
≤ 5 nM

$$$$
>  <molecule>
Cc1cccc(C)c1-n1nc2c(c1-c1cc(F)c(NC(N)=O)cc1F)CN(c1ncc(C(C)C)cn1)CC2 [Example 1.153]

>  <assay-target>
C5aR (Homo sapiens (Human), UniProt P21730)

>  <IC50>
5 to 50 nM

$$$$

Let us examine a further case.
I am curious: what IC50 value has been reported for CCc1cccc(CC)c1-n1nc2c(c1-c1cc(F)c(NC(N)=O)cc1F)CN(Cc1ccc(C(F)(F)F)cc1)C(C)(C)C2 [Example 1.017] ?
≤ 5 nM

###

pIC50 listing for selected compounds.
# assay-target: C5aR (Homo sapiens (Human), UniProt P21730)
# procedure-details: Chemotaxis assay using U937 cells (C5aR mediated migration)
# settings: read-out: Mig IC50
pIC50: −log10 of the molar value.

>  <compound>
Cc1ccc(C(C)(C)C)cc1N1CCc2nn(-c3c(C)cccc3C)c(-c3ccc(NC(N)=O)cc3)c2C1 [Example 1.442]

>  <assay-target>
C5aR (Homo sapiens (Human), UniProt P21730)

>  <pIC50>
7.30 to 8.30

$$$$
>  <compound>
CCc1cccc(CC)c1-n1nc2c(c1-c1cc(F)c(NC(N)=O)cc1F)CN(Cc1ccc(C(C)(C)C)cc1)CC2 [Example 1.054]

>  <assay-target>
C5aR (Homo sapiens (Human), UniProt P21730)

>  <pIC50>
≥ 8.30

$$$$
>  <compound>
Cc1cccc(OCC(C)C)c1-n1nc2c(c1-c1ccc(NC(N)=O)cc1)CN(c1cc(C(C)(C)C)ccc1Cl)CC2 [Example 1.422]

>  <assay-target>
C5aR (Homo sapiens (Human), UniProt P21730)

>  <pIC50>
7.30 to 8.30

$$$$

Let us examine a further case.
I am curious: what pIC50 value has been reported for Cc1cccc(OCC(C)C)c1-n1nc2c(c1-c1ccc(NC(N)=O)c(F)c1)CN(Cc1nccn1C)CC2 [Example 1.233] ?
< 6.30

###

# assay-target: C5aR (Homo sapiens (Human))
# procedure-details: Chemotaxis assay using U937 cells (C5aR mediated migration)
# settings: read-out: Mig IC50
outcome-measure: IC50

Completed entries (count: 3):
>  <item-smiles>
Cc1cccc(OCC(C)C)c1-n1nc2c(c1-c1ccc(NC(N)=O)cc1)CN(c1ncc(C(F)(F)F)cn1)CC2

>  <assay-target>
C5aR (Homo sapiens (Human))

>  <outcome-measure>
IC50

>  <reading>
5 to 50 nM

$$$$
>  <item-smiles>
COc1cccc(C)c1-n1nc2c(c1-c1ccc(NC(N)=O)cc1)CN(c1cc(C(C)(C)C)ccc1C)CC2

>  <assay-target>
C5aR (Homo sapiens (Human))

>  <outcome-measure>
IC50

>  <reading>
5 to 50 nM

$$$$
>  <item-smiles>
CCc1cccc(CC)c1-n1nc2c(c1-c1cc(F)c(NC(N)=O)cc1F)CN(Cc1ccc(C(F)(F)F)cc1C(F)(F)F)CC2

>  <assay-target>
C5aR (Homo sapiens (Human))

>  <outcome-measure>
IC50

>  <reading>
≤ 5 nM

$$$$

I am curious: what IC50 value has been reported for CCc1cccc(CC)c1-n1nc2c(c1-c1cc(F)c(NC(N)=O)cc1F)CN(Cc1cc(C(F)(F)F)ccc1C(F)(F)F)CC2 ?
≤ 5 nM

I am curious: what IC50 value has been reported for Cc1cccc(OCC(C)C)c1-n1nc2c(c1-c1ccc(NC(N)=O)c(F)c1)CN(S(=O)(=O)c1ccccc1)CC2 ?
5 to 50 nM

###

IC50 listing for selected molecules.
# assay-target: C5aR (Homo sapiens (Human), UniProt P21730)
# procedure-details: Chemotaxis assay using U937 cells (C5aR mediated migration)
# settings: read-out: Mig IC50

Completed entries (count: 5):
>  <molecule>
Cc1cccc(OCC(C)C)c1-n1nc2c(c1-c1cc(F)c(NC(N)=O)cc1F)CN(c1nccn3ccnc13)CC2

>  <assay-target>
C5aR (Homo sapiens (Human), UniProt P21730)

>  <IC50>
5 to 50 nM

$$$$
>  <molecule>
Cc1cccc(OCC(C)C)c1-n1nc2c(c1-c1cc(F)c(NC(N)=O)cc1F)CN(c1ncccn1)CC2

>  <assay-target>
C5aR (Homo sapiens (Human), UniProt P21730)

>  <IC50>
≤ 5 nM

$$$$
>  <molecule>
CCc1cccc(CC)c1-n1nc2c(c1-c1cc(F)c(NC(N)=O)cc1F)CN(C(C)c1ccccc1F)CC2 (centres unmarked)

>  <assay-target>
C5aR (Homo sapiens (Human), UniProt P21730)

>  <IC50>
≤ 5 nM

$$$$
>  <molecule>
CC[C@@H](c1ccccc1)N1CCc2nn(-c3c(C)cccc3C)c(-c3ccc(NC(N)=O)c(F)c3)c2C1

>  <assay-target>
C5aR (Homo sapiens (Human), UniProt P21730)

>  <IC50>
5 to 50 nM

$$$$
>  <molecule>
Cc1cccc(CCC(C)C)c1-n1nc2c(c1-c1ccc(NC(N)=O)cc1)CN(Cc1ccc(C(F)(F)F)cc1C(F)(F)F)CC2

>  <assay-target>
C5aR (Homo sapiens (Human), UniProt P21730)

>  <IC50>
5 to 50 nM

$$$$

IC50 of Cc1ccc(C(C)(C)C)cc1N1CCc2nn(-c3c(C)cccc3CC(C)C)c(-c3ccc(NC(N)=O)cc3)c2C1 on C5aR (Homo sapiens (Human), UniProt P21730)?
≤ 5 nM

IC50 of CCOc1cccc(C)c1-n1nc2c(c1-c1ccc(N)cc1)CN(c1ccccc1C(C)C)CC2 on C5aR (Homo sapiens (Human), UniProt P21730)?
50 to 500 nM

IC50 of Cc1cccc(OCC(C)C)c1-n1nc2c(c1-c1ccc(NC(N)=O)cc1)CN(c1ncccc1C(F)(F)F)CC2 on C5aR (Homo sapiens (Human), UniProt P21730)?
5 to 50 nM

IC50 of Cc1cccc(C)c1-n1nc2c(c1-c1ccc(NC(C)C)cc1)CN(c1ccccc1C(C)C)CC2 on C5aR (Homo sapiens (Human), UniProt P21730)?
50 to 500 nM

IC50 of CCc1cccc(CC)c1-n1nc2c(c1-c1cc(F)c(NC(N)=O)cc1F)CN(c1ncc(Cl)cc1Cl)CC2 on C5aR (Homo sapiens (Human), UniProt P21730)?
≤ 5 nM
